# credit: patent US11225505B2

Tested on: Klebsiella pneumoniae Kp BM1
Format: cell-based
conditionsUsed: Kp BM1
Where a SMILES comes first, the peptide text is derived from it. Bridges are numbered along the chain shown (N, C = ends). [ ]: non-standard residue; d: D form. The star is where a group is joined. Quinoline3carbonyl = O=C(c1cnc2ccccc2c1)*; X23 = O=C(c1cc2ccccc2[nH]1)*; Dab = NCC[C@H](N)C(=O)O; Abu = CC[C@H](N)C(=O)O; Dap = NC[C@H](N)C(=O)O
Exercise: state measured Minimum inhibitory concentration for each of the molecules provided.
Value expressed in µg/mL; do not type the unit.

# lookup: CC[C@@H]1NC(=O)[C@@H](CC(C)C)NC(=O)[C@H](CCN)NC(=O)[C@@H](NC(=O)[C@H](CN)NC(=O)[C@@H](NC(=O)[C@H](CCN)NC(=O)c2cnc3ccccc3c2)[C@@H](C)O)CCNC(=O)[C@H]([C@@H](C)O)NC(=O)[C@H](CCN)NC(=O)[C@H](CCN)NC1=O [Compound 52] (Quinoline3carbonyl-[Dab]T[Dap][Dab][Dab][dL][Abu][Dab][Dab]T; lactam 4-C) on Klebsiella pneumoniae Kp BM1, Minimum inhibitory concentration = 0.5

I looked up CC(C)C[C@H]1NC(=O)[C@H](CCN)NC(=O)[C@@H](NC(=O)[C@H](CN)NC(=O)[C@@H](NC(=O)[C@H](CCN)NC(=O)c2cc3ccccc3[nH]2)[C@@H](C)O)CCNC(=O)[C@H]([C@@H](C)O)NC(=O)[C@H](CCN)NC(=O)[C@H](CCN)NC(=O)[C@H]([C@@H](C)O)NC1=O [Compound 66] (X23-[Dab]T[Dap][Dab][Dab][dL]T[Dab][Dab]T; lactam 4-C) and its Minimum inhibitory concentration for Klebsiella pneumoniae Kp BM1 was 0.5
